We begin with a simple list: items and their reported pKi.
- target: recombinant human heparanase (Homo sapiens, UniProt Q9Y251)
- Sequence (Q9Y251 158-543 limits assumed): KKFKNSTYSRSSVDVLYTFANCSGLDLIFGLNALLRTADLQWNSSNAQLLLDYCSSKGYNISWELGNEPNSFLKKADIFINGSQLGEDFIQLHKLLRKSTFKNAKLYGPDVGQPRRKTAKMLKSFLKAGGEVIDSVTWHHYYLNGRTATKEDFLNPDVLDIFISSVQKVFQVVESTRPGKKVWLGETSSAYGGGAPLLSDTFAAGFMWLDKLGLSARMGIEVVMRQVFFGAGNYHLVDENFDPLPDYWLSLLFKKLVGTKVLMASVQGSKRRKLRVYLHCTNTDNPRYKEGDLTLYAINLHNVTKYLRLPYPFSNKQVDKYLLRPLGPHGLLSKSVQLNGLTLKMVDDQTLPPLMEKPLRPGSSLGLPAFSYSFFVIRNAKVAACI
- Sequence (Q9Y251 36-109 limits assumed): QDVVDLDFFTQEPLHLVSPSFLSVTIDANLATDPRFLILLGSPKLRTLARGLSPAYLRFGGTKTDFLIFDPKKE
- assay_summary: Heparanase inhibition assay (fondaparinux cleavage, WST-1)
- experimental_setup: read-out: Ki Heparanase; IC50 converted into Ki; fondaparinux 100 μM, pH 5.0
pKi: −log10 of the molar value.
measure_name: pKi

INSERT INTO results (compound, target, val) VALUES
  ('CC(C)CCCC(C)C1CCC2C3CCC4CC(OC5OC(COS(=O)(=O)O)C(OS(=O)(=O)O)C(OS(=O)(=O)O)C5OC5OC(COS(=O)(=O)O)C(OS(=O)(=O)O)C(OC6OC(COS(=O)(=O)O)C(OS(=O)(=O)O)C(OS(=O)(=O)O)C6OS(=O)(=O)O)C5OS(=O)(=O)O)CCC4(C)C3CCC12C (centres unmarked)', 'recombinant human heparanase (Homo sapiens, UniProt Q9Y251)', 8.19),
  ('CCCCCCCCCCCCCCCCCC(=O)NCCCOC1OC(COS(=O)(=O)O)C(OS(=O)(=O)O)C(OS(=O)(=O)O)C1OC1OC(COS(=O)(=O)O)C(OS(=O)(=O)O)C(OC2OC(COS(=O)(=O)O)C(OS(=O)(=O)O)C(OC3OC(COS(=O)(=O)O)C(OS(=O)(=O)O)C(OC4OC(COS(=O)(=O)O)C(OS(=O)(=O)O)C(OS(=O)(=O)O)C4OS(=O)(=O)O)C3OS(=O)(=O)O)C2OS(=O)(=O)O)C1OS(=O)(=O)O (centres unmarked)', 'recombinant human heparanase (Homo sapiens, UniProt Q9Y251)', 8.36),
  ('CCCCCCCCCCCCOC1OC(COS(=O)(=O)O)C(OS(=O)(=O)O)C(OS(=O)(=O)O)C1OC1OC(COS(=O)(=O)O)C(OS(=O)(=O)O)C(OC2OC(COS(=O)(=O)O)C(OS(=O)(=O)O)C(OC3OC(COS(=O)(=O)O)C(OS(=O)(=O)O)C(OC4OC(COS(=O)(=O)O)C(OS(=O)(=O)O)C(OS(=O)(=O)O)C4OS(=O)(=O)O)C3OS(=O)(=O)O)C2OS(=O)(=O)O)C1OS(=O)(=O)O (centres unmarked)', 'recombinant human heparanase (Homo sapiens, UniProt Q9Y251)', 8.38),
  ('O=S(=O)(O)OCC1OC(OC2C(OCCCCCCCCCCCCn3cc(-c4cccc5ccccc45)nn3)OC(COS(=O)(=O)O)C(OS(=O)(=O)O)C2OS(=O)(=O)O)C(OS(=O)(=O)O)C(OC2OC(COS(=O)(=O)O)C(OS(=O)(=O)O)C(OC3OC(COS(=O)(=O)O)C(OS(=O)(=O)O)C(OC4OC(COS(=O)(=O)O)C(OS(=O)(=O)O)C(OS(=O)(=O)O)C4OS(=O)(=O)O)C3OS(=O)(=O)O)C2OS(=O)(=O)O)C1OS(=O)(=O)O (centres unmarked)', 'recombinant human heparanase (Homo sapiens, UniProt Q9Y251)', 8.32),
  ('CC(C)CCC[C@@H](C)[C@H]1CC[C@H]2[C@@H]3CC[C@H]4C[C@@H](O[C@H]5O[C@H](COS(=O)(=O)O)[C@@H](OS(=O)(=O)O)[C@H](OS(=O)(=O)O)[C@@H]5O[C@H]5O[C@H](COS(=O)(=O)O)[C@@H](OS(=O)(=O)O)[C@H](OS(=O)(=O)O)[C@@H]5OS(=O)(=O)O)CC[C@]4(C)[C@H]3CC[C@]12C', 'recombinant human heparanase (Homo sapiens, UniProt Q9Y251)', 7.65);
